# subject-of-test: BACE1 (Homo sapiens, UniProt P56817)
# Sequence (P56817 46-501, species assumed): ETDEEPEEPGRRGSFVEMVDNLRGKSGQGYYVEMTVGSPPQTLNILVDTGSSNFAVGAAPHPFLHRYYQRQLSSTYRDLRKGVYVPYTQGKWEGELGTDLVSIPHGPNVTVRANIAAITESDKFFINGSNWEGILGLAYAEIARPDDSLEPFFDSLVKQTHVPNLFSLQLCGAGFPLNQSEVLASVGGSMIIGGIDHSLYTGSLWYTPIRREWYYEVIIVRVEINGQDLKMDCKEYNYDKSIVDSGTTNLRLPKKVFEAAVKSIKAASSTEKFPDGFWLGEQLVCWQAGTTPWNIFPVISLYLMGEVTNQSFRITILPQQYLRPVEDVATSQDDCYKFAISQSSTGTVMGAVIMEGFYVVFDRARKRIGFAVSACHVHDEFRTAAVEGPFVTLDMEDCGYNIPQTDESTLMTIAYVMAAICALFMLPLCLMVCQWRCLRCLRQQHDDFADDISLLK
# assay-explanation: In Vitro BACE Cell-based Assay (HEK cell assay): Aβ40 in conditioned medium of cells stably expressing Amyloid Precursor Protein, sandwich ELISA
# setup-conditions: Table IV, class symbols; read-out: HEK cell assay
Please go through the items and note down their IC50.

Per the records, this compound ( CN(C)C(=O)c1ccc2c(c1)[C@]1(COC(N)=N1)c1cc(OCC(C)(C)C)ccc1O2 [compound 799] ) has IC50 equal to 100 to 1000 nM

Per the records, this compound ( COc1cncc(-c2ccc3c(c2)[C@@]2(COC(N)=N2)c2cc(C#CC(C)(C)OC)cnc2O3)c1 [compound 602] ) has IC50 equal to < 100 nM

Per the records, this compound ( COc1cccc(-c2ccc3c(c2)[C@]2(COC(N)=N2)c2cc(-c4cncnc4)ccc2O3)c1 [compound 893] ) has IC50 equal to 100 to 1000 nM

Per the records, this compound ( CC(C)(O)C#Cc1cnc2c(c1)[C@]1(COC(N)=N1)c1cc(-c3ccc(F)nc3)ccc1O2 [compound 794] ) has IC50 equal to < 100 nM

---

Please go through the items and note down their IC50.
# subject-of-test: BACE1 (Homo sapiens)
# assay-explanation: In Vitro Enzymatic BACE FRET (Fluorescence Resonance Energy Transfer) Assay
# Type: biochemical
# setup-conditions: Table IV, class symbols; read-out: BACE1 FRET assay

Per the records, this compound ( NC1=N[C@@]2(CO1)c1cc(-c3cncnc3)ccc1Oc1ccc(C(F)(F)F)cc12 [compound 597] ) has IC50 equal to 100 to 1000 nM

Per the records, this compound ( NC1=N[C@@]2(CO1)c1cnccc1Oc1ccc(-c3cccnc3)cc12 [compound 556] ) has IC50 equal to 100 to 1000 nM

Per the records, this compound ( COc1cc(F)c2c(c1)[C@@]1(COC(N)=N1)c1cc(-c3cncnc3)cnc1O2 [compound 585] ) has IC50 equal to > 5000 nM

Per the records, this compound ( NC1=N[C@]2(CO1)c1cc(C3=CCNCC3)ccc1Oc1ccc(-c3cccnc3)cc12 [compound 810] ) has IC50 equal to < 100 nM

Per the records, this compound ( C[C@@H]1CN(c2ccc3c(c2)[C@]2(COC(N)=N2)c2cc(-c4cccnc4)ccc2O3)C[C@H](C)O1 [Example 662] ) has IC50 equal to < 100 nM

Per the records, this compound ( Cn1ccc2cc(-c3ccc4c(c3)[C@@]3(COC(N)=N3)c3cc(OCC(C)(C)C)ccc3O4)ccc21 [compound 914] ) has IC50 equal to 100 to 1000 nM

Per the records, this compound ( CC(C)C(O)COc1ccc2c(c1)[C@]1(COC(N)=N1)c1cc(-c3cccnc3)ccc1O2 (some centres unmarked) [compound 866] ) has IC50 equal to < 100 nM

Per the records, this compound ( NC1=N[C@]2(CO1)c1ccccc1Oc1ccc(-c3cccc4ncccc34)cc12 [compound 627] ) has IC50 equal to > 5000 nM

---

# subject-of-test: BACE1 (Homo sapiens, UniProt P56817)
# assay-explanation: In Vitro BACE Cell-based Assay (HEK cell assay): Aβ40 in conditioned medium of cells stably expressing Amyloid Precursor Protein, sandwich ELISA
# setup-conditions: Table IV, class symbols; read-out: HEK cell assay
pIC50: −log10 of the molar value.
reported-metric: pIC50

Per the records, this compound ( `CC(=O)c1cc(-c2ccc3c(c2)[C@@]2(COC(N)=N2)c2cc(OCC(C)(C)C)ccc2O3)cs1` ) has pIC50 equal to 5.30 to 6.00

Per the records, this compound ( `COc1cnc2c(c1)[C@]1(COC(N)=N1)c1cc(Br)ccc1O2` ) has pIC50 equal to < 5.30

Per the records, this compound ( `NC1=N[C@@]2(CO1)c1cc(Br)ccc1Oc1c(F)cccc12` ) has pIC50 equal to < 5.30

Per the records, this compound ( `NC1=N[C@]2(CO1)c1cc(OC[C@H](O)C(F)(F)F)ccc1Oc1ccc(-c3cccnc3)cc12` ) has pIC50 equal to 6.00 to 7.00

Per the records, this compound ( `CC(C)(C)C#Cc1ccc2c(c1)[C@]1(COC(N)=N1)c1cc(C#CC(C)(C)C)cnc1O2` ) has pIC50 equal to < 5.30

Per the records, this compound ( `NC1=N[C@]2(CO1)c1ccccc1Oc1ccc(-c3cccc4cccnc34)cc12` ) has pIC50 equal to < 5.30

Per the records, this compound ( `Cn1cc(-c2ccc3c(c2)[C@]2(COC(N)=N2)c2cc(-c4ccc(F)nc4)ccc2O3)cn1` ) has pIC50 equal to > 7.00

Per the records, this compound ( `NC1=N[C@]2(CO1)c1cc(Br)ccc1Oc1cnc(Cl)cc12` ) has pIC50 equal to < 5.30

---

# subject-of-test: BACE1 (Homo sapiens, UniProt P56817)
# assay-explanation: In Vitro BACE Cell-based Assay (HEK cell assay): Aβ40 in conditioned medium of cells stably expressing Amyloid Precursor Protein, sandwich ELISA
# setup-conditions: Table III; IC50's in uM ranges; read-out: HEK cell assay
reported-metric: IC50

Per the records, this compound ( `NC1=N[C@]2(CO1)c1cc(CCCCO)ccc1Oc1ccc(-c3cccnc3)cc12` ) has IC50 equal to < 0.1 µM

Per the records, this compound ( Cc1n[nH]cc1-c1ccc2c(c1)[C@@]1(COC(N)=N1)c1cc(OCC(C)(C)C)ccc1O2 [Example 129, 2,2,2-trifluoroacetate] ) has IC50 equal to > 5 µM

Per the records, this compound ( CC(C)(C)CCc1ccc2c(c1)[C@]1(COC(N)=N1)c1cc(-c3cccnc3)cnc1O2 [182b] ) has IC50 equal to 0.1 to 1 µM

Per the records, this compound ( COC(C)(C)CCc1ccc2c(c1)C1(COC(N)=N1)c1cc(-c3cccnc3)cnc1O2 (racemic) ) has IC50 equal to 0.1 to 1 µM

Per the records, this compound ( CC(C)(C)CC(O)c1ccc2c(c1)[C@]1(COC(N)=N1)c1cc(-c3ccc(F)nc3)ccc1O2 (stereo partly shown) [162a] ) has IC50 equal to 0.1 to 1 µM

Per the records, this compound ( `CC(C)(C)COc1ccc2c(c1)[C@]1(COC(N)=N1)c1cc(-c3csc(-n4ccnc4)n3)ccc1O2` ) has IC50 equal to 1 to 5 µM

Per the records, this compound ( CC(C)(C)C[C@@H](F)c1ccc2c(c1)[C@]1(COC(N)=N1)c1cc(-c3cncnc3)ccc1O2 [116b] ) has IC50 equal to 0.1 to 1 µM

Per the records, this compound ( `NC1=N[C@@]2(CO1)c1cc(Br)ccc1Oc1ccc(Oc3ccccn3)cc12` ) has IC50 equal to 0.1 to 1 µM

Per the records, this compound ( `NC1=N[C@]2(CO1)c1cc(Br)ccc1Oc1ccc(Oc3ccccn3)cc12` ) has IC50 equal to 1 to 5 µM

Per the records, this compound ( `COC(C)(C)COc1ccc2c(c1)[C@]1(COC(N)=N1)c1cc(-c3cccnc3)ccc1O2` ) has IC50 equal to < 0.1 µM

Per the records, this compound ( `CC(C)(F)COc1ccc2c(c1)[C@]1(COC=N1)c1cc(Br)c(N)nc1O2` ) has IC50 equal to 1 to 5 µM

Per the records, this compound ( `NC1=N[C@]2(CO1)c1cc(-c3cccnc3)ccc1Oc1ncc(-c3cccnc3)cc12` ) has IC50 equal to < 0.1 µM

Per the records, this compound ( `CC(C)(C)COc1ccc2c(c1)[C@@]1(COC(N)=N1)c1cc(-c3cnc4ccccn34)ccc1O2` ) has IC50 equal to > 5 µM

Per the records, this compound ( `CC(C)(C#N)COc1ccc2c(c1)[C@]1(COC(N)=N1)c1cc(-c3cccnc3)ccc1O2` ) has IC50 equal to < 0.1 µM

Per the records, this compound ( `NC1=N[C@]2(CO1)c1cc(OCC(C(F)(F)F)C(F)(F)F)ccc1Oc1ccc(-c3cncnc3)cc12` ) has IC50 equal to 0.1 to 1 µM

Per the records, this compound ( COC(C)(C)C#Cc1ccc2c(c1)[C@@]1(COC(N)=N1)c1cc(-c3cccnc3)cnc1O2 [208a] ) has IC50 equal to 0.1 to 1 µM

Per the records, this compound ( `COC(C)(C)CCc1ccc2c(c1)[C@]1(COC(N)=N1)c1cc(-c3cncnc3)ccc1O2` ) has IC50 equal to < 0.1 µM

Per the records, this compound ( C[C@H]1OC(N)=N[C@]12c1cc(OCC(C)(C)C)ccc1Oc1ccc(-c3cncnc3)cc12 [126c] ) has IC50 equal to 1 to 5 µM

Per the records, this compound ( `CC(C)(C)OCCOc1ccc2c(c1)[C@]1(COC(N)=N1)c1cc(-c3cccnc3)ccc1O2` ) has IC50 equal to 0.1 to 1 µM

Per the records, this compound ( `Cc1ccc(-c2ccc3c(c2)[C@]2(COC(N)=N2)c2cc(-c4cncnc4)ccc2O3)cc1` ) has IC50 equal to < 0.1 µM

Per the records, this compound ( `CC(C)(C)C#Cc1ccc2c(c1)[C@@]1(COC(N)=N1)c1cc(-c3cccnc3)cnc1O2` ) has IC50 equal to < 0.1 µM

Per the records, this compound ( COc1ccc2c(c1)[C@@]1(COC(N)=N1)c1cc(-c3cncnc3)cc(F)c1O2 [152b] ) has IC50 equal to 1 to 5 µM

Per the records, this compound ( `CC1(COc2ccc3c(c2)[C@]2(COC(N)=N2)c2cc(Br)cnc2O3)COC1` ) has IC50 equal to 1 to 5 µM

Per the records, this compound ( `CC(C)(C)COc1ccc2c(c1)[C@]1(COC(N)=N1)c1cc(-c3ccnnc3)ccc1O2` ) has IC50 equal to 0.1 to 1 µM

Per the records, this compound ( `CC(C)(C)OCCOc1ccc2c(c1)[C@]1(COC(N)=N1)c1cc(-c3cncnc3)ccc1O2` ) has IC50 equal to < 0.1 µM

Per the records, this compound ( `CC(C)(C)COc1ccc2c(c1)[C@@]1(COC(N)=N1)c1cc(-c3ncccn3)ccc1O2` ) has IC50 equal to < 0.1 µM

Per the records, this compound ( `CC(C)(O)COc1ccc2c(c1)[C@]1(COC(N)=N1)c1cc(Br)ccc1O2` ) has IC50 equal to 1 to 5 µM

Per the records, this compound ( `NC1=NC2(CO1)c1cc(-c3ccc(F)nc3)ccc1Oc1ccc(-c3ccc(F)nc3)cc12` ) has IC50 equal to 0.1 to 1 µM

Per the records, this compound ( `CC(C)OCCOc1ccc2c(c1)[C@]1(COC(N)=N1)c1cc(-c3cncnc3)ccc1O2` ) has IC50 equal to 0.1 to 1 µM

Per the records, this compound ( `NC1=NC2(CO1)c1cc(-c3cncnc3)ccc1Oc1ccc(-c3cncnc3)cc12` ) has IC50 equal to 0.1 to 1 µM

Per the records, this compound ( `CC(C)(C)COc1ccc2c(c1)[C@]1(COC(N)=N1)c1cc(-c3csc(N4CCCC4)n3)ccc1O2` ) has IC50 equal to > 5 µM
